We begin with a simple list: items and their reported residual activity.
- tested_on: Serine/threonine-protein kinase MARK1 (Homo sapiens) (UniProt Q9P0L2)
- Sequence (Q9P0L2 whole entry, looked up): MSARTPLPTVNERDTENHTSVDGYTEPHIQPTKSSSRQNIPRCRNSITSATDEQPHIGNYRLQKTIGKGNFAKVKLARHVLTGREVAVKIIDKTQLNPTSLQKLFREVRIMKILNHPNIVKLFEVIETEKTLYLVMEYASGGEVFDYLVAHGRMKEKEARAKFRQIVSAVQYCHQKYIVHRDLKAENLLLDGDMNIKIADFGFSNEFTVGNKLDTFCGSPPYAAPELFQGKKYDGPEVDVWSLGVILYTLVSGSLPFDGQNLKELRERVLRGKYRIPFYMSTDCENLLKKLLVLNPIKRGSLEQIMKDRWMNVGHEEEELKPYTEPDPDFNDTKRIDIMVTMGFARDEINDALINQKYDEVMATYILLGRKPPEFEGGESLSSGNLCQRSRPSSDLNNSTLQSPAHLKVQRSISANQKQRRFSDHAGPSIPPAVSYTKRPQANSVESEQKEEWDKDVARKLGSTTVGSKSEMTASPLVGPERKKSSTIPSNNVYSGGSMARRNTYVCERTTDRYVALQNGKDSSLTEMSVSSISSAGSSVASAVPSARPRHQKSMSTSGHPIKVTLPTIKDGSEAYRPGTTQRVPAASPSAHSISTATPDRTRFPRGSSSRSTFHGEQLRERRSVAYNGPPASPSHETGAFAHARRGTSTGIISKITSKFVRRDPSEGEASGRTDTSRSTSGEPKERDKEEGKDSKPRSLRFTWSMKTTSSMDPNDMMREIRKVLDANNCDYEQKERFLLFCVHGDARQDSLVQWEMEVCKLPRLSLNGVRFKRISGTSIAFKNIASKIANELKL
- test_context: at 10 µM
Kindly provide the numeric value in % only, without the unit symbol.

Query: Reported residual activity for Serine/threonine-protein kinase MARK1 (Homo sapiens) (UniProt Q9P0L2), given "O=C1NC(=O)/C(=C\c2ccc3nccnc3c2)S1" ?
Response: 71

Query: Reported residual activity for Serine/threonine-protein kinase MARK1 (Homo sapiens) (UniProt Q9P0L2), given "CC(=O)c1ccc(N2CCOCC2)cc1O" ?
Response: 91

---

We begin with a simple list: items and their reported residual activity.
- tested_on: Tyrosine-protein kinase Mer (Homo sapiens) (UniProt Q12866)
- Sequence (Q12866 whole entry): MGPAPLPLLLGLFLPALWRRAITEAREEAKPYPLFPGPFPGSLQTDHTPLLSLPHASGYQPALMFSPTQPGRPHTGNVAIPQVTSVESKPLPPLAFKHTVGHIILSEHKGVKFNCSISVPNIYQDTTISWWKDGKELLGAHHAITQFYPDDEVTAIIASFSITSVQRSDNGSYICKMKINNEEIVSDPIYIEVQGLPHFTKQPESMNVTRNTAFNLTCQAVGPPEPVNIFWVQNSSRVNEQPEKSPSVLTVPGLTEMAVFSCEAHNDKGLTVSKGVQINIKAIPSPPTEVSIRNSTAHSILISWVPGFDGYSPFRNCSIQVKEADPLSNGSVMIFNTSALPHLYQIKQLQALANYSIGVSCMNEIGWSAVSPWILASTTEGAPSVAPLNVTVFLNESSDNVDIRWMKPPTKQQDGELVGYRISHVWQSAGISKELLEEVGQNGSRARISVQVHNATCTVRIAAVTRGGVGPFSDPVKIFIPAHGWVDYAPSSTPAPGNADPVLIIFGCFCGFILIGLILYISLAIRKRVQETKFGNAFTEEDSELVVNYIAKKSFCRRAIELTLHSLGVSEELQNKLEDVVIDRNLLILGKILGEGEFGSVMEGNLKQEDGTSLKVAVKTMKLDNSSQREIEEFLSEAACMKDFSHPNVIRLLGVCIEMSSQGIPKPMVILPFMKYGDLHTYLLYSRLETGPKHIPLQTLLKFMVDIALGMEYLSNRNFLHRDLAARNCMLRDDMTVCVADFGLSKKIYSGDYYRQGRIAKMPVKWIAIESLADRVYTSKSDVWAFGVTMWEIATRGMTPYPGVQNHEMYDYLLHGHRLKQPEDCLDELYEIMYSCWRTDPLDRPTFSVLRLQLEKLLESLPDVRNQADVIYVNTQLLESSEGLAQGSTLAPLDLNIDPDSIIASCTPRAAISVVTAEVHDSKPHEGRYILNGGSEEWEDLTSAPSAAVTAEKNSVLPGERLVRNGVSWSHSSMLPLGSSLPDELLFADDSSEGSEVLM
- test_context: at 1 µM
Kindly provide the numeric value in % only, without the unit symbol.

Recorded residual activity, per entry:
- compound: "COc1ccc(S(=O)(=O)N(CCO)c2ccccc2CN(C)C/C=C/c2ccc(Cl)cc2)cc1"
  residual activity [%]: 93
- compound: "CC(=O)O/N=C1\\C(=C2\\C(=O)Nc3cc(Br)ccc32)Nc2ccccc21"
  residual activity [%]: 39
- compound: "COc1ccc(OC)c2c(=S)c3ccccc3[nH]c12"
  residual activity [%]: 99
- compound: "CCOc1cc2ncnc(Nc3cccc(Br)c3)c2cc1OCC"
  residual activity [%]: 84
- compound: "O=C1NC(=O)c2cc(Nc3ccc(F)cc3)c(Nc3ccc(F)cc3)cc21"
  residual activity [%]: 105
- compound: "Cc1ccc(NC2=CC(=O)c3sc(C)nc3C2=O)cc1"
  residual activity [%]: 98

Query: Reported residual activity for Tyrosine-protein kinase Mer (Homo sapiens) (UniProt Q12866), given "C[C@@H](N)[C@H]1CC[C@H](C(=O)Nc2ccncc2)CC1" ?
Response: 93

Query: Reported residual activity for Tyrosine-protein kinase Mer (Homo sapiens) (UniProt Q12866), given O=C1Nc2ccccc2/C1=C1/Nc2ccccc2/C1=N\OCCC(O)CO (stereo unspecified) ?
Response: 1

Query: Reported residual activity for Tyrosine-protein kinase Mer (Homo sapiens) (UniProt Q12866), given "c1ccc2c(-c3ccncc3)c[nH]c2c1" ?
Response: 100

Query: Reported residual activity for Tyrosine-protein kinase Mer (Homo sapiens) (UniProt Q12866), given "O=C(Nc1cccc(Nc2nccc(Nc3cccc(C(F)(F)F)c3)n2)c1)C1CC1" ?
Response: 72
